Entries annotated with measured remaining activity at 15 µM
Target: EthR-VP16 (Mycobacterium bovis, UniProt Q7TVI1)
Sequence (Q7TVI1 whole entry, looked up): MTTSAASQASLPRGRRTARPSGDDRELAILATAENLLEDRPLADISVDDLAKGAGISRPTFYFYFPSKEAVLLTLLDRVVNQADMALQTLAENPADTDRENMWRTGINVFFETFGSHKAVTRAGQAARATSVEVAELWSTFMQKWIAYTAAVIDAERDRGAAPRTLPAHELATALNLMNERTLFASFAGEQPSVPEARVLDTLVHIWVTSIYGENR
Assay: cell-based
Parameters: species or system M. bovis
Conditions: 48 h, read-out: % EthR activity (w/o = 100%); ± std. dev. of the mean (n = 3)
MEASURED ENDPOINT: remaining activity at 15 µM (%)

>>> recorded_measurement("CCCCC(=O)N1CCC(c2ccccc2)C1 (stereo not drawn)")
5.65
>>> recorded_measurement("O=C(CCc1ccccc1)N1CC(Cc2ccccc2)C1")
28.7
>>> recorded_measurement("O=C(CCc1ccccc1)N1CCC(c2ccccc2)C1 (stereo not drawn)")
11.8
>>> recorded_measurement("O=C(CCCc1ccccc1)N1CCC1c1ccccc1 (stereo not drawn)")
86.8
>>> recorded_measurement("O=C(CCCc1ccccc1)N1CC(Cc2ccccc2)C1")
31.7
>>> recorded_measurement("CCCCC(=O)N1CCN(Cc2ccccc2)CC1")
38.3
>>> recorded_measurement("CCCCCC(=O)N1CCOC(c2ccccc2)C1 (stereo not drawn)")
33.2
>>> recorded_measurement("O=C(COc1ccc(F)cc1)N1CCC(c2ccccc2)C1 (stereo not drawn)")
3.21
>>> recorded_measurement("CCCC(=O)N1CCN(Cc2ccccc2)CC1")
72.6

* * *

Biological target: UniProt Q7TVI1
Test: cell-based
Design: species or system M. bovis
Settings: 48 h, read-out: % EthR activity (w/o = 100%); ± std. dev. of the mean (n = 3)
// assign 1 (yes) if remaining activity at 6 µM falls strictly below 60%, else 0 (no) (ties count as 0 (no))

>>> label_value("CCCCC(=O)N1CCOC(c2ccccc2)C1 (stereo not drawn) [Example 30, 1-(2-Phenylmorpholin-4-yl)pentan-1-one]")
"0 (no)"
>>> label_value("CC(C)CC(=O)N1CCOC(c2ccccc2)C1 (stereo not drawn) [Example 19]")
"0 (no)"
>>> label_value("CCCCCC(=O)N1CCOC(c2ccccc2)C1 (stereo not drawn) [Example 31, 1-(2-Phenylmorpholin-4-yl)hexan-1-one]")
"0 (no)"
>>> label_value("CCCCC(=O)N1CCC(c2ccccc2)C1 (stereo not drawn) [Example 32, 1-(3-Phenylpyrrolidin-1-yl)pentan-1-one]")
"1 (yes)"
>>> label_value("O=C(CCc1ccccc1)N1CCC1c1ccccc1 (stereo not drawn) [Example 22]")
"0 (no)"
>>> label_value("O=C(CCc1ccccc1)N1CCC(c2ccccc2)C1 (stereo not drawn) [Example 16]")
"1 (yes)"
>>> label_value("O=C(CCCc1ccccc1)N1CC(Cc2ccccc2)C1 [Example 27]")
"1 (yes)"
>>> label_value("O=C(Cc1cccs1)N1CCOC(c2ccccc2)C1 (stereo not drawn) [Example 14]")
"0 (no)"
>>> label_value("CCCCCC(=O)N1CCN(Cc2ccccc2)CC1 [Example 29, 1-(4-Benzylpiperazin-1-yl)hexan-1-one]")
"1 (yes)"
>>> label_value("CCCCCC(=O)N1CCC(c2ccccc2)C1 (stereo not drawn) [Example 33, 1-(3-Phenylpyrrolidin-1-yl)hexan-1-one]")
"1 (yes)"

* * *

Readings of remaining activity at 3 µM for the listed compounds
Biological target: EthR-VP16 (Mycobacterium bovis, UniProt Q7TVI1)
Test: cell-based
Parameters: species or system M. bovis
Settings: 48 h, read-out: % EthR activity (w/o = 100%); ± std. dev. of the mean (n = 3)
MEASURED ENDPOINT: remaining activity at 3 µM

>>> recorded_measurement("CCCCCC(=O)N1CCOC(c2ccccc2)C1 (stereo not drawn)")
"94.1%"
>>> recorded_measurement("CCCC(=O)N1CCN(Cc2ccccc2)CC1")
"68.7%"
>>> recorded_measurement("CCCCC(=O)N1CCN(Cc2ccccc2)CC1")
"59.4%"
>>> recorded_measurement("O=C(Cc1ccccc1)N1CCC(c2ccccc2)C1 (stereo not drawn)")
"22.5%"
>>> recorded_measurement("O=C(Cc1cccs1)N1CCOC(c2ccccc2)C1 (stereo not drawn)")
"85.9%"
>>> recorded_measurement("CCCC(=O)N1CCOC(c2ccccc2)C1 (stereo not drawn)")
"84.4%"
>>> recorded_measurement("O=C(CCCc1ccccc1)N1CCC1c1ccccc1 (stereo not drawn)")
"101%"
>>> recorded_measurement("O=C(CCc1ccccc1)N1CCC(c2ccccc2)C1 (stereo not drawn)")
"19.9%"
>>> recorded_measurement("CCCCC(=O)N1CCC(c2ccccc2)C1 (stereo not drawn)")
"10.4%"
>>> recorded_measurement("CCCCCC(=O)N1CCN(Cc2ccccc2)CC1")
"36.5%"
>>> recorded_measurement("O=C(CCCc1ccccc1)N1CC(Cc2ccccc2)C1")
"37.9%"
>>> recorded_measurement("O=C(CCc1ccccc1)N1CC(Cc2ccccc2)C1")
"69.5%"
>>> recorded_measurement("CC(C)CC(=O)N1CCOC(c2ccccc2)C1 (stereo not drawn)")
"95.9%"
>>> recorded_measurement("O=C(CCc1ccco1)N1CCN(Cc2ccccc2)CC1")
"81.4%"
>>> recorded_measurement("CC(C)(C)CC(=O)N1CCOC(c2ccccc2)C1 (stereo not drawn)")
"88.2%"
>>> recorded_measurement("O=C(COc1ccc(F)cc1)N1CCC(c2ccccc2)C1 (stereo not drawn)")
"7.81%"
>>> recorded_measurement("CCCCCC(=O)N1CCC(c2ccccc2)C1 (stereo not drawn)")
"5.8%"
>>> recorded_measurement("CCCC(=O)N1CCC(c2ccccc2)C1 (stereo not drawn)")
"11%"

* * *

Biological target: UniProtKB Q7TVI1
Assay: cell-based
Design: species or system M. bovis
Settings: 48 h, read-out: % EthR activity (w/o = 100%); ± std. dev. of the mean (n = 3)
In this section, each of the compounds is paired with its reported remaining activity at 1.5 µM.
MEASURED ENDPOINT: remaining activity at 1.5 µM (%)

>>> recorded_measurement("CCCCCC(=O)N1CCN(Cc2ccccc2)CC1 [Example 29, 1-(4-Benzylpiperazin-1-yl)hexan-1-one]")
56
>>> recorded_measurement("CC(C)(C)CC(=O)N1CCOC(c2ccccc2)C1 (stereo not drawn) [Example 20]")
90.9
>>> recorded_measurement("CCCC(=O)N1CCC(c2ccccc2)C1 (stereo not drawn) [Example 13, 1-(3-Phenylpyrrolidin-1-yl)butan-1-one]")
17.7
>>> recorded_measurement("O=C(Cc1cccs1)N1CCOC(c2ccccc2)C1 (stereo not drawn) [Example 14]")
86.2
>>> recorded_measurement("O=C(CCc1ccccc1)N1CCOC(c2ccccc2)C1 (stereo not drawn) [Example 21]")
98.5
>>> recorded_measurement("CCCCC(=O)N1CCC(c2ccccc2)C1 (stereo not drawn) [Example 32, 1-(3-Phenylpyrrolidin-1-yl)pentan-1-one]")
10.7
>>> recorded_measurement("CCCCC(=O)N1CCN(Cc2ccccc2)CC1 [Example 28, 1-(4-Benzylpiperazin-1-yl)pentan-1-one]")
81.5
>>> recorded_measurement("O=C(CCc1ccccc1)N1CCC(c2ccccc2)C1 (stereo not drawn) [Example 16]")
27.2
>>> recorded_measurement("CCCCCC(=O)N1CCC(c2ccccc2)C1 (stereo not drawn) [Example 33, 1-(3-Phenylpyrrolidin-1-yl)hexan-1-one]")
14.9
>>> recorded_measurement("O=C(CCCc1ccccc1)N1CC(Cc2ccccc2)C1 [Example 27]")
42.6
>>> recorded_measurement("O=C(CCc1ccccc1)N1CC(Cc2ccccc2)C1 [Example 25]")
88.5
>>> recorded_measurement("CCCCC(=O)N1CCOC(c2ccccc2)C1 (stereo not drawn) [Example 30, 1-(2-Phenylmorpholin-4-yl)pentan-1-one]")
111
>>> recorded_measurement("O=C(Cc1ccccc1)N1CCC(c2ccccc2)C1 (stereo not drawn) [Example 17]")
35.5
>>> recorded_measurement("O=C(CCCc1ccccc1)N1CCC1c1ccccc1 (stereo not drawn) [Example 23]")
102
>>> recorded_measurement("O=C(CCc1ccco1)N1CCN(Cc2ccccc2)CC1 [Example 18]")
80.7
>>> recorded_measurement("CCCC(=O)N1CCOC(c2ccccc2)C1 (stereo not drawn) [Example 3, 1-(2-Phenylmorpholino)butan-1-one]")
96.8
>>> recorded_measurement("O=C(CCc1ccccc1)N1CCC1c1ccccc1 (stereo not drawn) [Example 22]")
106
>>> recorded_measurement("O=C(COc1ccc(F)cc1)N1CCC(c2ccccc2)C1 (stereo not drawn) [Example 15]")
10.3
>>> recorded_measurement("CC(C)CC(=O)N1CCOC(c2ccccc2)C1 (stereo not drawn) [Example 19]")
102
>>> recorded_measurement("CCCC(=O)N1CCN(Cc2ccccc2)CC1 [Example 1, 1-(4-Benzylpiperazin-1-yl)butan-1-one]")
76.5
>>> recorded_measurement("CCCCCC(=O)N1CCOC(c2ccccc2)C1 (stereo not drawn) [Example 31, 1-(2-Phenylmorpholin-4-yl)hexan-1-one]")
103

* * *

remaining activity at 30 µM values by entry
Target: EthR-VP16 (Mycobacterium bovis, UniProt Q7TVI1)
Assay: cell-based
Design: species or system M. bovis
Conditions: 48 h, read-out: % EthR activity (w/o = 100%); ± std. dev. of the mean (n = 3)
MEASURED ENDPOINT: remaining activity at 30 µM (%)

>>> recorded_measurement("CCCCC(=O)N1CCC(c2ccccc2)C1 (stereo not drawn)")
8.77
>>> recorded_measurement("CCCC(=O)N1CCOC(c2ccccc2)C1 (stereo not drawn)")
86.5
>>> recorded_measurement("CCCCC(=O)N1CCOC(c2ccccc2)C1 (stereo not drawn)")
43.3
>>> recorded_measurement("O=C(CCc1ccccc1)N1CCOC(c2ccccc2)C1 (stereo not drawn)")
8.33
>>> recorded_measurement("O=C(CCc1ccco1)N1CCN(Cc2ccccc2)CC1")
11.2
>>> recorded_measurement("CCCCCC(=O)N1CCN(Cc2ccccc2)CC1")
16.7
>>> recorded_measurement("O=C(Cc1cccs1)N1CCOC(c2ccccc2)C1 (stereo not drawn)")
35.4
>>> recorded_measurement("O=C(CCCc1ccccc1)N1CCC1c1ccccc1 (stereo not drawn)")
81.5
>>> recorded_measurement("CCCCC(=O)N1CCN(Cc2ccccc2)CC1")
18.5
>>> recorded_measurement("CC(C)(C)CC(=O)N1CCOC(c2ccccc2)C1 (stereo not drawn)")
43.7
>>> recorded_measurement("CCCC(=O)N1CCN(Cc2ccccc2)CC1")
64.1
>>> recorded_measurement("CCCC(=O)N1CCC(c2ccccc2)C1 (stereo not drawn)")
14.5
>>> recorded_measurement("O=C(Cc1ccccc1)N1CCC(c2ccccc2)C1 (stereo not drawn)")
11.5
>>> recorded_measurement("CC(C)CC(=O)N1CCOC(c2ccccc2)C1 (stereo not drawn)")
35.2
>>> recorded_measurement("CCCCCC(=O)N1CCC(c2ccccc2)C1 (stereo not drawn)")
5.01
>>> recorded_measurement("CCCCCC(=O)N1CCOC(c2ccccc2)C1 (stereo not drawn)")
25
>>> recorded_measurement("O=C(COc1ccc(F)cc1)N1CCC(c2ccccc2)C1 (stereo not drawn)")
0.77
>>> recorded_measurement("O=C(CCc1ccccc1)N1CCC(c2ccccc2)C1 (stereo not drawn)")
11.4
